System: Plasmodium berghei
Assay: Screen against P. berghei liver stage (PbLuc), transformed with Luciferase, at 10uM
Format: functional, HepG2
Details: tested at 10 uM
The whole screen tested about 69,000 compounds, of which about 8,600 (12%) showed an effect of 50% or more. Only a selection was taken, and strong results are over-represented in it overall.
Lab note: compare INHIBITION against 10%. Equal or greater, write label 1. Smaller, write label 0.

Example entries and their recorded answers appear below.
>  <molecule>
NC(=O)C1Cn2ccnc2C2(CCN(C(=O)NC3CCCC3)CC2)O1 (centres undefined)

>  <group label>
label 0

$$$$
>  <molecule>
CC(c1cccc(-c2ncccc2F)c1)N(C)C (centres undefined)

>  <group label>
label 0

$$$$

Prompt line: Determine whether this molecule has INHIBITION no lower than 10%: Cn1ncc2c1CCCC2NCc1ccc(Br)s1 (centres undefined)
Response line: label 1

====

Tested on: Plasmodium berghei
Assay: Screen against P. berghei liver stage (PbLuc), transformed with Luciferase, at 10uM
Assay type: functional, HepG2
Conditions: tested at 10 uM
Among all 69,000 compounds or so, about 8,600 (12%) showed an effect of 50% or more. This excerpt belongs to a sample that is enriched for strong results.
Note to self: use met only for INHIBITION readings below 30%; a reading exactly at 30% still gets not met.

Example entries and their recorded answers appear below.
>  <compound>
CC(c1cccnc1)N(C)Cc1ccccn1 (configuration not stated)

>  <group label>
not met

$$$$
>  <compound>
Cn1nc(CNC(=O)c2ccc(OC(F)(F)F)cc2)c2c1CCOC2

>  <group label>
met

$$$$
>  <compound>
Cc1ccc(C(=O)Nc2nc(C)no2)cc1

>  <group label>
met

$$$$
>  <compound>
O=C(C1CN(CC2CCOCC2)CC12CCOCC2)N1CCOCC1 (configuration not stated)

>  <group label>
met

$$$$
>  <compound>
Cc1ccc(C2COCCN2C(=O)c2ccc(F)c(F)c2)o1 (configuration not stated)

>  <group label>
not met

$$$$
>  <compound>
Cc1noc(NC(=O)c2ccc(Br)s2)n1

>  <group label>
not met

$$$$
>  <compound>
Cc1noc(NC(=O)c2ccc(Br)o2)n1

>  <group label>
not met

$$$$
>  <compound>
Cc1nc2c(c(=O)[nH]1)CCN(C(=O)c1[nH]nc3c1CC(C)CC3)C2 (configuration not stated)

>  <group label>
met

$$$$
>  <compound>
Cc1cc(-c2ccc(=O)n(C3CCN(C(=O)C4CCC4)CC3)n2)c(C)o1

>  <group label>
met

$$$$
>  <compound>
CC(c1ccncn1)N(C)Cc1cc(O)c2cc(F)ccc2n1 (configuration not stated)

>  <group label>
met

$$$$

Prompt line: I wonder whether CC(c1cccnc1)N(C)Cc1cc(O)c2cc(F)ccc2n1 (configuration not stated) has INHIBITION below 30%. Can you tell?
Response line: not met

Prompt line: Please do the same for `Cc1c(NC(=O)c2cccc(Br)c2)c(C(=O)N(C)C)nn1C` as well.
Response line: not met

====

System: Plasmodium berghei
Test: Screen against P. berghei liver stage (PbLuc), transformed with Luciferase, at 10uM
Type: functional, HepG2
Details: tested at 10 uM
Hit rate of the full screen: of about 69,000 compounds, about 8,600 (12%) showed an effect of 50% or more. What follows is part of a selection rich in strong results, with near analogues and random picks from the rest.
quantity measured: INHIBITION (%)
Supply the numeric figure in %, leaving out any unit text.

# count of solved cases: 3
>  <molecule>
Cc1cnc(N2CCC3(CC2)CC3C(=O)NCC2CC2)nc1 (centres undefined)

>  <target>
Plasmodium berghei

>  <INHIBITION, %>
16.9

$$$$
>  <molecule>
O=C(c1ccc2c(c1)[nH]c(=O)n2C1CCC(O)CC1)N1CCOCC1 (centres undefined)

>  <target>
Plasmodium berghei

>  <INHIBITION, %>
48

$$$$
>  <molecule>
CN1C(=O)C[C@H]2[C@H]1CCN2Cc1cccc(C#N)c1

>  <target>
Plasmodium berghei

>  <INHIBITION, %>
7.77

$$$$

Prompt line: State the recorded INHIBITION for this entry: `O=C(NC1CC1)c1cc2c(s1)CCN2C(=O)C1CC1`
Response line: 51.4

Prompt line: Please do the same for `N#Cc1cccc(NC(=O)N2CCC3(CCC(=O)N(C4CC4)C3)CC2)c1` as well.
Response line: 19.5

Prompt line: Please do the same for `COCCOCC(=O)N1C[C@@H]2CC[C@H](Oc3ccccc3F)[C@@H]2C1` as well.
Response line: 15.9

Prompt line: Please do the same for Cc1cnc(N2CCC3(CC2)CC3CNC(=O)N(C)C)nc1 (centres undefined) as well.
Response line: 7.24

Prompt line: Please do the same for `CN(C)C(=O)COCc1cncc2c1CCN(C1CCOCC1)C2` as well.
Response line: 4.68

Prompt line: Please do the same for `CC(C)OCCCN(Cc1ccncc1)Cc1cccc(F)c1F` as well.
Response line: -12.9

Prompt line: Please do the same for CN1CCOCC2(CCCN(C(=O)c3ccccc3F)C2)C1 (centres undefined) as well.
Response line: 34.6

Prompt line: Please do the same for `Cc1nc(N[C@H]2COC[C@@H]2N2CCCCC2)c2c(C)nn(C)c2n1` as well.
Response line: 24.8

Prompt line: Please do the same for Cc1ccncc1C(=O)N1CCCC(C(=O)CCc2ccccc2)C1 (centres undefined) as well.
Response line: -34.8

Prompt line: Please do the same for Cc1ccc(C#N)cc1NC(=O)NC1CCCN(c2ncccn2)C1 (centres undefined) as well.
Response line: 42
